# Test system: Nucleic Acid
// assign T if Log K falls strictly below 6, else F (ties count as F)

Past entries and their recorded results:
INSERT INTO measurements (compound_smiles, target_under_test, assigned_class) VALUES
  ('CCCCCCNc1ccc(Nc2c3ccccc3nc3ccccc23)cc1', 'Nucleic Acid', 'F'),
  ('CCCNc1ccc(Nc2c3ccccc3nc3ccccc23)cc1', 'Nucleic Acid', 'F'),
  ('COc1ccccc1Nc1c2ccccc2nc2ccccc12', 'Nucleic Acid', 'T'),
  ('Ic1ccccc1Nc1c2ccccc2nc2ccccc12', 'Nucleic Acid', 'T');

# next compound below
# strict comparison: is reported Log K < 6? input = CCc1ccccc1Nc1c2ccccc2nc2ccccc12
T
